- System: UACC-62
- ASSAY SUMMARY: NCI tumour cell line growth inhibition, 48 h
Calls of active or inactive are those of the source. No stated cut-off is given here; in the data, active = GI50 up to about 1.1 µM and inactive = higher.
Labels: class 1 for active, class 0 for inactive

{"COMPOUND": "COc1ccc(/C=N/NC(=O)c2ccccc2Nc2ccccc2C(=O)N/N=C/c2ccc(OC)c(OC)c2)cc1OC", "LABEL VALUE": "class 0"}
{"COMPOUND": "COC(=O)c1cc(C)ccc1CC(Cc1ccc(C)cc1)C(=O)OC (configuration not stated)", "LABEL VALUE": "class 0"}
{"COMPOUND": "O=C(Nc1cccc(Cl)c1)Nn1cnnc1", "LABEL VALUE": "class 0"}
{"COMPOUND": "CSc1ncc2c(C#N)c3n(C)c4ccccc4n3c(=O)c2n1", "LABEL VALUE": "class 0"}
{"COMPOUND": "CC1C=C(NCC2(CO)CCC2)N=C(N)N1 (configuration not stated)", "LABEL VALUE": "class 0"}
{"COMPOUND": "COc1ccc(NC(=S)Nc2cc(C)ccn2)cc1", "LABEL VALUE": "class 0"}
{"COMPOUND": "O=C1NC(=O)C(Cc2ccccc2)(c2cccnc2)N1 (configuration not stated)", "LABEL VALUE": "class 0"}
{"COMPOUND": "Cc1cc(C)nc(NS(=O)(=O)c2ccc(Nc3c4ccccc4nc4c(C(=O)Nc5ccc(S(=O)(=O)N=C(N)N)cc5)ccc(Cl)c34)cc2)n1", "LABEL VALUE": "class 0"}
{"COMPOUND": "CC1=C(NC(=O)/C(=N/NC(=S)NN)C2C(=O)CC(C)(C)CC2=O)C(=O)c2ccccc2C1=O", "LABEL VALUE": "class 0"}
{"COMPOUND": "NC(=O)CCC(NC(=O)Cc1ccccc1)C(=O)O (configuration not stated)", "LABEL VALUE": "class 0"}
{"COMPOUND": "COc1c2c(c3c(c1CCC(=O)O)OC(C)(C)C=C3)OC(C)(C)C=C2", "LABEL VALUE": "class 0"}
{"COMPOUND": "CCN(Cc1cc(Cl)cc(C)c1O)Cc1c(O)ccc2ccccc12", "LABEL VALUE": "class 0"}
{"COMPOUND": "COc1ccc(C(=O)/C=C/c2ccc3c(c2)OCO3)c(OCc2ccccc2)c1", "LABEL VALUE": "class 0"}
{"COMPOUND": "COc1c(CC(C)=O)c2ccccc2n1C(C)=O", "LABEL VALUE": "class 0"}
{"COMPOUND": "CN(C)CCNc1ccc2c(=O)n(CCN(C)C)c(=O)n3c4ccc(N)cc4c(=O)c1c23", "LABEL VALUE": "class 1"}
{"COMPOUND": "O=c1[nH]c(=O)n(C2CC(O)C(CO)O2)cc1/C=C/Br (configuration not stated)", "LABEL VALUE": "class 0"}
{"COMPOUND": "Nc1ccc(-c2nc3ccc(F)cc3s2)cc1I", "LABEL VALUE": "class 0"}
{"COMPOUND": "Cc1nc(-c2ccc([N+](=O)[O-])cc2)cn2c1nc1ccccc12", "LABEL VALUE": "class 0"}
{"COMPOUND": "O=C1c2ccccc2C(=O)C12CCc1ccccc12", "LABEL VALUE": "class 0"}
{"COMPOUND": "CC(=O)Nc1ccc(-c2nc3ccccc3s2)cc1C", "LABEL VALUE": "class 0"}
{"COMPOUND": "COC(=O)C1C(=O)C=CN([C@H](C)c2ccccc2)[C@@H]1Cc1ccc(OC)c(OCc2ccccc2)c1I (some centres not stated)", "LABEL VALUE": "class 0"}
{"COMPOUND": "C/C(CCc1ccccc1)=N\\NC(N)=S", "LABEL VALUE": "class 0"}
